Below, each entry is listed with its recorded Kd.
target-under-test: yDcn1^P (Saccharomyces cerevisiae, UniProt Q12395)
Construct: made in house; host or cells: E. coli
Sequence (Q12395 70-269): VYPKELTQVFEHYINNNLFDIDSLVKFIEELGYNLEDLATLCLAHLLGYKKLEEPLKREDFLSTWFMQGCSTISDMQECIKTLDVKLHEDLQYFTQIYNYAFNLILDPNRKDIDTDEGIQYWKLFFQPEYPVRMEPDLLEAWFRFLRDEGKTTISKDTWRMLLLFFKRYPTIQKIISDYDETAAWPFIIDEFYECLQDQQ
method: ITC binding of Ubc12 peptides to yDcn1^P
Parameters: species or system S. cerevisiae
quantity-measured: Kd

>>> df
                                  substance                         target_under_test  assay_result
0  H-MLKLRQLQKKKQKENENSSSIQPN-NH2 [yUbc12^1-24]  yDcn1^P (Saccharomyces cerevisiae, UniProt Q12395)       > 40 µM
1  Ac-LKLRQLQKKKQKENENSSSIQPN-NH2 [Acetyl-yUbc12^2-24]  yDcn1^P (Saccharomyces cerevisiae, UniProt Q12395)       > 37 µM

* * *

target-under-test: hDcn2^P (Homo sapiens, UniProt Q6PH85)
Construct: human Dcn1 family members 1-5 (also called DCUND1-DCUND5)
Sequence (Q6PH85 62-259): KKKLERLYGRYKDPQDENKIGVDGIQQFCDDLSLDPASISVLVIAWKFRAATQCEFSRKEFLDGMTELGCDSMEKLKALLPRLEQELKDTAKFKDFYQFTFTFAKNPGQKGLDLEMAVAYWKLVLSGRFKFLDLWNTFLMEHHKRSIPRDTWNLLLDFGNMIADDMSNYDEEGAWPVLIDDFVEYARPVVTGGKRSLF
method: ITC binding of peptides to hDcn2^P
test-context: Table 29, peptides with amidated carboxy-terminus
quantity-measured: Kd

>>> print(df.to_string())
                                  substance  quantity_measured  assay_result
0  Ac-MLTLASKLKRDDGLKGSRTAATASD-NH2 [hUbe2f^Ac1−25]                 Kd      > 400 µM

* * *

target-under-test: hDcn1^P (Homo sapiens)
Construct: hDcn1^P corresponds to residues 62 to the C-terminal residue 259 of hDcn1; GST (cleaved yes); made in house; host or cells: E. coli BL21(DE3)Gold
Sequence (Q96GG9 62-259): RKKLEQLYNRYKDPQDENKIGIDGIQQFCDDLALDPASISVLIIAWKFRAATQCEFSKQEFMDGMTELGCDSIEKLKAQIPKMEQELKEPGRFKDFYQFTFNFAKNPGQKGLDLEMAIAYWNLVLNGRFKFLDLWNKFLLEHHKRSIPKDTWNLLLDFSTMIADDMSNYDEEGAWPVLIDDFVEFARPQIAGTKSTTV
method: ITC binding of Ubc12/Ube2f peptides to hDcn1^P
test-context: protein hDcn1^P, titrant Ubc12 peptide, read-out: Kd
quantity-measured: Kd

                                  substance       target_under_test  assay_result
0  Ac-IKLFSLKQQKKEEESAGGTKGSSKK-NH2 [Acetyl-hUbc12^2-26]  hDcn1^P (Homo sapiens)      > 100 µM
1  H-MIKLFSLKQQKKEEESAGGTKGSSKK-NH2 [hUbc12^1-26]  hDcn1^P (Homo sapiens)      > 130 µM

* * *

Below, each entry is listed with its recorded pKd.
target-under-test: hDcn1^P (Homo sapiens)
Construct: hDcn1^P corresponds to residues 62 to the C-terminal residue 259 of hDcn1; GST (cleaved yes); made in house; host or cells: E. coli BL21(DE3)Gold
method: ITC binding of Ubc12/Ube2f peptides to hDcn1^P
test-context: Table 29, peptides with amidated carboxy-terminus, read-out: Binding Kd for hDcn1^P
pKd: −log10 of the molar value. No end group written: not given here.
quantity-measured: pKd

                                  substance       target_under_test  quantity_measured  assay_result
0  MIKLFSLKQQKKEEESAGGTKGSSKK-NH2 [hUbc12^1−26]  hDcn1^P (Homo sapiens)                pKd        < 3.70
1  Ac-IKLFSLKQQKKEEESAGGTKGSSKK-NH2 [hUbc12^Ac−2−26]  hDcn1^P (Homo sapiens)                pKd        < 3.82
2  Ac-MLTLASKLKRDDGLKGSRTAATASD-NH2 [hUbe2f^Ac1−25]  hDcn1^P (Homo sapiens)                pKd        < 3.30
